// note: Kd values for Retinoic acid receptor gamma (Homo sapiens) were reported in different studies
A number alone suffices; assume nM.

Entry C=C(c1ccc(C)cc1)c1cc(C#Cc2ccc(C(=O)O)cc2)ccc1OCOC : reported Kd = ?
730

Entry CCc1ccc(C2=C(/C=C/C#Cc3ccc(C(=O)O)cc3)C(C)(C)CCC2)cc1 : reported Kd = ?
36

Entry CCOc1c(\C(CC)=C(F)/C=C/C(C)=C/C(=O)O)cc2c(c1Br)C(C)(C)CC=C2C(C)C : reported Kd = ?
507

Entry CCOc1c(\C(C)=C(F)/C=C/C(C)=C/C(=O)O)cc2c(c1Br)C(C)(C)CC=C2C(C)C : reported Kd = ?
1000

Entry COC(=O)c1ccc(Oc2cc(C#Cc3ccc(C(=O)O)c(F)c3)ccc2C(C)(C)C)cc1 : reported Kd = ?
66

Entry CC12CCC(C1)C1(C)Oc3ccc(C(=O)COc4ccc(C(=O)O)c(O)c4)cc3C21C (centres unmarked) : reported Kd = ?
150

====

// note: log10 of Kd values for Retinoic acid receptor gamma (Homo sapiens) were reported in different studies
Note the log scale: values are log10 of Kd expressed in nM.

Entry Cc1ccc(C(=O)c2cc(C#Cc3ccc(C(=O)O)c(F)c3)c(C)cc2O)cc1 : reported log10 of Kd = ?
3.29

Entry CC12CCC(C1)C1(C)Oc3ccc(CCOc4ccc(C(=O)O)c(O)c4)cc3C21C (stereo not shown) : reported log10 of Kd = ?
3.35

Entry CC(/C=C/[C@@H]1C[C@]1(C)c1ccc2c(c1)C(C)(C)CC(=S)N2C(C)C)=C\C(=O)O : reported log10 of Kd = ?
4.40

Entry C=C(c1ccc(C)cc1)c1cc(C#Cc2ccc(C(=O)O)cc2)ccc1OC(C)C : reported log10 of Kd = ?
2.98

Entry CC1(C)CC=C(c2cccs2)c2ccc(C(=O)C=Cc3ccc(C(=O)O)cc3)cc21 : reported log10 of Kd = ?
2.72

Entry CCOc1c(\C(=C(F)/C=C/C(C)=C/C(=O)O)C(C)C)cc2c(c1Br)C(C)(C)CC=C2C(C)C : reported log10 of Kd = ?
2.43

Entry CC12CCC(C1)C1(C)Oc3ccc(C(O)COc4ccc(C(=O)O)cc4)cc3C21C (stereo not shown) : reported log10 of Kd = ?
1.60

Entry CC1(C)CC(C)(C)c2cc(C#Cc3ccc(C(=O)O)cc3)ccc2O1 : reported log10 of Kd = ?
3.64

Entry CCCCOc1c(C(C)(C)C)cc(/C(C)=C/C=C/C(C)=C/C(=O)O)cc1C(C)(C)C : reported log10 of Kd = ?
1.23

====

// note: Kd values for Retinoic acid receptor gamma (Homo sapiens, UniProt P13631) were reported in different studies

# value lookup — system Retinoic acid receptor gamma (Homo sapiens, UniProt P13631), readout Kd, item Cc1cc(C#Cc2ccc(CC(=O)O)cc2)ccc1Cn1ccnc1
> 100 µM

# value lookup — system Retinoic acid receptor gamma (Homo sapiens, UniProt P13631), readout Kd, item COCOC1CCC(C)(C)c2ccc(N=Nc3ccc(C(=O)O)cc3)cc21 (racemic)
> 1 µM

# value lookup — system Retinoic acid receptor gamma (Homo sapiens, UniProt P13631), readout Kd, item C#Cc1cc(C(=O)Oc2ccc(CC(=O)OCOC(C)=O)cc2)cc2c1OC(C)(C)CC2(C)C
> 10 µM

# value lookup — system Retinoic acid receptor gamma (Homo sapiens, UniProt P13631), readout Kd, item CC(/C=C/CC1(c2ccc3c(c2)C(C)(C)CCC3(C)C)CCCC1)=C\C(=O)O
> 5 µM

# value lookup — system Retinoic acid receptor gamma (Homo sapiens, UniProt P13631), readout Kd, item CC(=O)OCOC(=O)Cc1ccc(OC(=O)c2cc(C#N)c3c(c2)C(C)(C)CC(C)(C)O3)cc1F
> 10 µM

# value lookup — system Retinoic acid receptor gamma (Homo sapiens, UniProt P13631), readout Kd, item Cc1cc2c(cc1S(=O)(=O)c1ccc(C(=O)O)cc1)C(C)(C)CCC2(C)C
> 1 µM

# value lookup — system Retinoic acid receptor gamma (Homo sapiens, UniProt P13631), readout Kd, item C#Cc1cc(C(=O)Oc2ccc(CC(=O)O)cc2)cc2c1OC(C)(C)CC2(C)C
> 10 µM
